biological target: Porcine ventricle myofibrils (ventricular myosin ATPase) (Sus scrofa, UniProt P79293); construct: Myofibrils from porcine cardiac muscle was isolated from the left ventricle of Yucatan minipigs; tissue Exemplar Genetics; host or cells: left ventricle of Yucatan minipigs, myofibrils prepared in house; experiment: Myofibril ATPase assay, porcine ventricle myofibrils; type: biochemical, porcine (Yucatan minipigs); settings: porcine ventricle myofibrils; Y75 value
Sequence (P79293 whole entry): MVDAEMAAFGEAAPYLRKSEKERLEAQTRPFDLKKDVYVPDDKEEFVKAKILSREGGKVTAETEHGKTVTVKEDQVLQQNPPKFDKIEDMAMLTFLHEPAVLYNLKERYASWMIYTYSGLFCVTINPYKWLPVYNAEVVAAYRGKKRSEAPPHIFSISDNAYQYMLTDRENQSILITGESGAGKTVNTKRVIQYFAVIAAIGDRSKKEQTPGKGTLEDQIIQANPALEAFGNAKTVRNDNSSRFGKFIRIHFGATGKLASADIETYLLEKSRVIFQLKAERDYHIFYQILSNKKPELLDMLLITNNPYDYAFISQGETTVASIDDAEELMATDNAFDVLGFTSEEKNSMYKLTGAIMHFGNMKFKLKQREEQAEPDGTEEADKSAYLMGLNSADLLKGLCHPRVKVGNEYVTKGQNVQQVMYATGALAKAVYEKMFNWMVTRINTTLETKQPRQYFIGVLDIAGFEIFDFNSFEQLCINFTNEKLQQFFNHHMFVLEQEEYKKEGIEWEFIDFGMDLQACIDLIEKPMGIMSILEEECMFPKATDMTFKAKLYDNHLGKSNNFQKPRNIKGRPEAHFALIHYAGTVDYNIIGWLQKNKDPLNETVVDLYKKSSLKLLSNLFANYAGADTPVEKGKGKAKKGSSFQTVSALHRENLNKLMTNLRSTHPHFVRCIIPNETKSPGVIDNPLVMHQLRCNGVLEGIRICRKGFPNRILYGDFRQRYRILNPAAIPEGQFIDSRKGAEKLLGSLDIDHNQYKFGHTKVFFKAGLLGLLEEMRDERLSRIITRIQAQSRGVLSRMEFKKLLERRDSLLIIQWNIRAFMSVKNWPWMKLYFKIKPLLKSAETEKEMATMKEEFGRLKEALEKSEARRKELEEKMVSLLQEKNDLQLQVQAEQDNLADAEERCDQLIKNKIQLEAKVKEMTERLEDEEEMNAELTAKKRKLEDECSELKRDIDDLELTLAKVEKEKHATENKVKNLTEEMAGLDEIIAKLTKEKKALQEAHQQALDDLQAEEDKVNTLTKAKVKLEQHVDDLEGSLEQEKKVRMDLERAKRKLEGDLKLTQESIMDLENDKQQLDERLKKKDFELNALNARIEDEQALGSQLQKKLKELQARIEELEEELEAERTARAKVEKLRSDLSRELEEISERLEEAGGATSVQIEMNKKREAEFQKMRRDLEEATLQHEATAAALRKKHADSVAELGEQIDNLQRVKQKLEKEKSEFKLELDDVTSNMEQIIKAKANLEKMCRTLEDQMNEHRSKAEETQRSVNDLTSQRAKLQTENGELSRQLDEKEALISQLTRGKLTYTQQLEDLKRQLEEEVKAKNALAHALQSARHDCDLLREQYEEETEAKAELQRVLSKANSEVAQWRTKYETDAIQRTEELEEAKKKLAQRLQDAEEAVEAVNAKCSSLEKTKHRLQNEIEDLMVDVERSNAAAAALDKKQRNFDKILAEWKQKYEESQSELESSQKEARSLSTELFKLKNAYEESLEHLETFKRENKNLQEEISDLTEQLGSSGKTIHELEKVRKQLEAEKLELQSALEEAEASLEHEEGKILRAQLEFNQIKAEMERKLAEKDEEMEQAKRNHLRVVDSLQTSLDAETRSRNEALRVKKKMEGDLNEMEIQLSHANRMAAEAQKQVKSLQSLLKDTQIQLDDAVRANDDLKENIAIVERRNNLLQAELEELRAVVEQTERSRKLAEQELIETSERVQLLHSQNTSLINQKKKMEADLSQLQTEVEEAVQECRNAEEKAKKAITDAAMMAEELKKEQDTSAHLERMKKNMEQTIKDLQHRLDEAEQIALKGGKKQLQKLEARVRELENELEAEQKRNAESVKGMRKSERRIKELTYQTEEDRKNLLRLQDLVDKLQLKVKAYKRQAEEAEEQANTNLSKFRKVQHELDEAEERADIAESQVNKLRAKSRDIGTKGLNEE
Recorded Ventricular EC25 values for a group of compounds are listed next.
outcomeMeasure: Ventricular EC25 (µM)

> print(dat)
                                   compound    outcomemeasure  recordednumber
1  Cc1nccc2[nH]c(=O)c(CC(=O)N[C@H](C)c3ccc(C#N)cn3)c(C)c12 (single isomer, unassigned)  Ventricular EC25          100.00
2  Cc1nccc2[nH]c(=O)c(CC(=O)N[C@H](CO)c3ccncc3)c(C)c12  Ventricular EC25          100.00
3  C[C@H](NC(=O)Cc1c(C(F)(F)F)c2cnccc2[nH]c1=O)c1ccc(F)cc1F  Ventricular EC25           10.16
4  Cc1nccc2[nH]c(=O)c(CC(=O)N[C@@H](CCO)c3ccc(F)cc3F)c(C)c12 (single isomer, unassigned)  Ventricular EC25           52.00
5  Cc1nccc2[nH]c(=O)c(CC(=O)N[C@@H]3COc4cccnc43)c(C)c12 (single isomer, unassigned)  Ventricular EC25          100.00
6  Cc1cc(C#N)nnc1[C@H](C)NC(=O)Cc1c(C)c2c(C)nccc2[nH]c1=O  Ventricular EC25          100.00
7  Cc1nccc2[nH]c(=O)c(CC(=O)N[C@H](C)c3ccc(O)nc3)c(C)c12 (single isomer, unassigned)  Ventricular EC25          100.00
8  Cc1nccc2[nH]c(=O)c(CC(=O)N[C@@H](C)c3ccc(F)cc3F)c(C#N)c12  Ventricular EC25            6.35

---

biological target: Porcine ventricle myofibrils (ventricular myosin ATPase) (Sus scrofa, UniProt P79293); construct: Myofibrils from porcine cardiac muscle was isolated from the left ventricle of Yucatan minipigs; tissue Exemplar Genetics; host or cells: left ventricle of Yucatan minipigs, myofibrils prepared in house; experiment: Myofibril ATPase assay, porcine ventricle myofibrils; assay type: biochemical, porcine (Yucatan minipigs); settings: porcine ventricle myofibrils; Y75 value
outcomeMeasure: Ventricular EC25 (µM)

> print(dat)
                                    compound  unittext  recordednumber
 1  Cc1c(C(F)(F)C(=O)N[C@@H](C)c2ccc(F)cc2F)c(=O)[nH]c2ccnc(Cl)c12        µM            0.20
 2  Cc1c(CC(=O)N[C@@H](CO)c2ccc(F)cc2F)c(=O)[nH]c2ccnc(C(F)(F)F)c12        µM            2.74
 3  CC(C(=O)N[C@@H](C)c1ccc(F)cc1F)c1cc2c(I)nccc2[nH]c1=O (some centres unmarked)        µM          100.00
 4  Cc1ccc2[nH]c(=O)c(CC(=O)N[C@@H](C)c3ccc(F)cc3F)c(C(F)(F)F)c2n1        µM          100.00
 5  Cc1c(CC(=O)N[C@@H](C)c2ncc(F)cc2F)c(=O)[nH]c2ccnc(C(F)(F)F)c12 (single isomer, unassigned)        µM            1.11
 6  Cc1nccc2[nH]c(=O)c(CC(=O)N[C@H](C)c3cnc(C#N)cn3)c(C)c12        µM            1.47
 7  Cc1c(CC(=O)N[C@H](CO)c2ccc(C#N)cc2F)c(=O)[nH]c2ccc(C(F)(F)F)nc12        µM          100.00
 8  Cc1nc(C#N)cnc1[C@H](C)NC(=O)Cc1c(C)c2nc(C(F)(F)F)ccc2[nH]c1=O (single isomer, unassigned)        µM            0.18
 9  Cc1c(CC(=O)N[C@H](C)c2ncc(F)cc2F)c(=O)[nH]c2ccc(C#N)nc12 (single isomer, unassigned)        µM          100.00
10  Cc1nccc2[nH]c(=O)c(CC(=O)N[C@H]3CCc4cc(F)cc(F)c43)c(C)c12 [compound 501]        µM              78
11  Cc1c(CC(=O)N[C@@H](C)c2ccc(F)cc2F)c(=O)[nH]c2ccnc(OCC(F)F)c12        µM            0.77
12  Cc1nccc2[nH]c(=O)c(CC(=O)N[C@@H](C)c3ccc(O)cc3)c(C)c12 (single isomer, unassigned)        µM          100.00
13  Cc1c(CC(=O)N[C@H](C)c2ccc(C#N)cc2F)c(=O)[nH]c2ccnc(C#N)c12 (single isomer, unassigned)        µM            1.16
14  C[C@H](NC(=O)Cc1c(C(F)(F)F)c2c(C3CC3)nccc2[nH]c1=O)c1ncc(C#N)cn1 (single isomer, unassigned)        µM          100.00
15  Cc1nccc2[nH]c(=O)c(CC(=O)N[C@@H]3CCc4cc(C#N)cnc43)c(C)c12 (single isomer, unassigned)        µM          100.00
16  COC[C@H](NC(=O)Cc1c(C)c2c(C#N)nccc2[nH]c1=O)c1ccc(C#N)cc1F        µM            1.02
17  Cc1c(CC(=O)N[C@@H](CO)c2ccc(F)cc2F)c(=O)[nH]c2ccnc(OC3CC3)c12        µM          100.00
18  C[C@H](NC(=O)Cc1cc2nc(O)ccc2[nH]c1=O)c1ccc(F)cc1F        µM          100.00
19  Cc1nccc2[nH]c(=O)c(CC(=O)N[C@H](CO)Cc3ccccc3)c(C)c12        µM          100.00
20  CCOc1nccc2[nH]c(=O)c([C@@H](C)C(=O)N[C@@H](C)c3ccc(F)cc3F)c(C(F)(F)F)c12 (single isomer, unassigned)        µM          100.00

---

tested on: Porcine atria myofibrils (atrial myosin ATPase); test: Myofibril ATPase assay, porcine atria myofibrils; assay type: biochemical; conditions: Y75 value (no ‡ mark); porcine atria myofibrils
outcomeMeasure: Atrial EC25 (µM)

> print(dat)
                                    molecule  outcomemeasure  unittext  recordednumber
 1  Cc1c(CC(=O)N[C@@H](C)c2ccc(C#N)nn2)c(=O)[nH]c2ccc(F)cc12     Atrial EC25        µM            2.58
 2  C[C@H](NC(=O)Cc1cc2c(C#N)cccc2[nH]c1=O)c1ncc(C#N)cn1 (single isomer, unassigned)     Atrial EC25        µM          100.00
 3  C[C@H](NC(=O)C(F)(F)c1cc2cc(F)ccc2[nH]c1=O)c1nccc(C#N)n1 (single isomer, unassigned)     Atrial EC25        µM          100.00
 4  Cc1c(C2(C(=O)N[C@H](C)c3ncc(C#N)cc3F)CC2)c(=O)[nH]c2ccc(F)c(C(F)(F)F)c12 (single isomer, unassigned)     Atrial EC25        µM            0.28
 5  Cc1nc(C#N)cnc1[C@H](C)NC(=O)Cc1cc2cc(F)c(F)cc2[nH]c1=O (single isomer, unassigned)     Atrial EC25        µM            0.81
 6  Cc1c(CC(=O)N[C@@H](C)c2ncc(C#N)cc2F)c(=O)[nH]c2cc(F)ccc12     Atrial EC25        µM            0.44
 7  C[C@@H](NC(=O)Cc1c(C2CC2)c2cc(F)ccc2[nH]c1=O)c1ccc(C#N)cc1F     Atrial EC25        µM          100.00
 8  Cc1c(CC(=O)N[C@H]2COCc3cc(C#N)cnc32)c(=O)[nH]c2ccc(F)cc12     Atrial EC25        µM          100.00
 9  Cc1c(CC(=O)N[C@@H](C)c2ccc(F)cc2F)c(=O)[nH]c2ccc(O)c(C#N)c12     Atrial EC25        µM            2.52
10  Cc1c(C(F)(F)C(=O)N[C@H](C)c2cnc(C#N)cn2)c(=O)[nH]c2ccc(F)cc12 (single isomer, unassigned) [compound 2563]     Atrial EC25        µM            0.15
11  Cc1c(CC(=O)N[C@@H](C)c2ncc(C#N)cc2F)c(=O)[nH]c2ccc(F)c(C(F)(F)F)c12     Atrial EC25        µM            0.02
12  Cc1c(CC(=O)N[C@H]2CCc3cc(C#N)cnc32)c(=O)[nH]c2ccc(F)cc12     Atrial EC25        µM          100.00
13  Cc1c(F)ccc2[nH]c(=O)c(C(F)(F)C(=O)N[C@H](C)c3ncc(C#N)cn3)c(C)c12 (single isomer, unassigned)     Atrial EC25        µM            0.12
14  Cc1c(C(F)(F)C(=O)N[C@@H](C)c2ncc(C#N)cn2)c(=O)[nH]c2ccc(F)cc12 (single isomer, unassigned)     Atrial EC25        µM            0.36
15  Cc1cc(C#N)ncc1[C@H](C)NC(=O)Cc1c(C)c2c(C)c(F)ccc2[nH]c1=O     Atrial EC25        µM             1.5
16  C[C@@H](NC(=O)Cc1cc2c(F)c(F)ccc2[nH]c1=O)c1cnc(C#N)cn1 (single isomer, unassigned)     Atrial EC25        µM            0.05
17  Cc1c(CC(=O)N[C@@H](C)c2ccc(C#N)cn2)c(=O)[nH]c2ccc(F)c(F)c12     Atrial EC25        µM            0.24
18  Cc1c(CC(=O)N[C@@H](C)c2ncc(C#N)cc2F)c(=O)[nH]c2cccc(F)c12     Atrial EC25        µM            0.06
19  Cc1nc([C@H](C)NC(=O)Cc2c(C)c3c(C)c(F)ccc3[nH]c2=O)ncc1C#N (single isomer, unassigned)     Atrial EC25        µM            1.44
20  C[C@H](NC(=O)Cc1c(C2CC2)c2cc(F)ccc2[nH]c1=O)c1ccc(F)cc1F     Atrial EC25        µM            3.86
